Biological target: F304Y mSlo3 (Mus musculus, UniProt O54982, F304Y)
Sequence (O54982 whole entry F304Y): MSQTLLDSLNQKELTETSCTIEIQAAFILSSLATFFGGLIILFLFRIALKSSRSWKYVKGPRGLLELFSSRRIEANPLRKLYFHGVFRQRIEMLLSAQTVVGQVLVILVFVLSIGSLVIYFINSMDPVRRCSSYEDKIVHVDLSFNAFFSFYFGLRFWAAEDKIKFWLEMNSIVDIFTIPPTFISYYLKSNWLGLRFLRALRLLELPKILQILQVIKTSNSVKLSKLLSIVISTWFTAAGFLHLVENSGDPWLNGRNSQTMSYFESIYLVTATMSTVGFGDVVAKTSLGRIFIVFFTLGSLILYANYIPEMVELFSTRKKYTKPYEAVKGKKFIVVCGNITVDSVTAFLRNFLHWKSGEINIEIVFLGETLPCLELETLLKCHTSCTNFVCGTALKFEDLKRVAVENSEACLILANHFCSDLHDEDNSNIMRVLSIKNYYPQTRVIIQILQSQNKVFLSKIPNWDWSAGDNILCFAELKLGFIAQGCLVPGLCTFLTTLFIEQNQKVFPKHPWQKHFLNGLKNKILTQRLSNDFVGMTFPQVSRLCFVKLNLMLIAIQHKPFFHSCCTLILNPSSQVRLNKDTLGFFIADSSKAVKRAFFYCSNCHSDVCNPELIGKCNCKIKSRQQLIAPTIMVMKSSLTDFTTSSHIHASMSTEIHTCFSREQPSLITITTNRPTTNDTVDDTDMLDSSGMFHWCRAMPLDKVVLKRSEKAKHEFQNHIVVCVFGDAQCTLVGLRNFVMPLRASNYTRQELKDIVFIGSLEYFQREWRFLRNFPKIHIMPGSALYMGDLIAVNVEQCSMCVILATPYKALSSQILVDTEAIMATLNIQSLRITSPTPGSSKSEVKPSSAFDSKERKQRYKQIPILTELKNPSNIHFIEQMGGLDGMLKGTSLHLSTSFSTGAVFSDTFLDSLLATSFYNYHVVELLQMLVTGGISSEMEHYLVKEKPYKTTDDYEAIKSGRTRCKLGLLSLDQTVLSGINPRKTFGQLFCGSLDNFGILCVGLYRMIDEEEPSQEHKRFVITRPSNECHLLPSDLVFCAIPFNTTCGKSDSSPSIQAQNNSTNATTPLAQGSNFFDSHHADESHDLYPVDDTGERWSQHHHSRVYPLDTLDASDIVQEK
Test: Two-electrode voltage clamp of F304Y mSlo3 currents in Xenopus oocytes
Conditions: +100 mV; Xenopus oocytes; read-out: IC50 of inhibition of F304Y mSlo3 currents
quantityName: pIC50
Numbers only, as −log10 of the molar value.

Recorded pIC50 of [Ba+2].[Cl-].[Cl-] [Ba^2+, barium chloride] , please.
3.28
